Cited source for all entries: patent US11260115B1

Target: HLA-A*02:01 (Homo sapiens, UniProt P04439, D140Y/D185E/D98H/E176V/E277Q/G131W/G231S/I119V/I121R/I166T/I218V/L300P/L318F/N151K/N90K/P208A/P217A/Q86G/Q94H/R138H/R169H/T345S)
Experiment: MHC binding assay (UV-ligand exchange, β2m ELISA, peptide exchange yield)
Details: binding to HLA-A*02:01
Property: Peptide Exchange (MHC class I binding score, peptide exchange yield)

Substance	Test value
208 (ILLKTEGINL; listed as Homo sapiens) [compound 208]	“+++” (>50 = +++)
377 (VVDGTCVAV; listed as Homo sapiens) [compound 377]	“+++” (>50 = +++)
104 (KLILLDTPLFL; listed as Homo sapiens) [compound 104]	“+++” (>50 = +++)

---

Target: HLA-A*02:01 (Homo sapiens, UniProt P04439, D140Y/D185E/D98H/E176V/E277Q/G131W/G231S/I119V/I121R/I166T/I218V/L300P/L318F/N151K/N90K/P208A/P217A/Q86G/Q94H/R138H/R169H/T345S)
Assay: MHC binding assay (UV-ligand exchange, β2m ELISA, peptide exchange yield)
Settings: binding to HLA-A*02:01
Property: Peptide Exchange (MHC class I binding score, peptide exchange yield)

Please review the following examples before continuing.
Substance	Test value
8 (ALAASALPALV; listed as Homo sapiens) [compound 8]	“+++” (>50 = +++)
372 (SLFGPLPGPGPALV; listed as Homo sapiens) [compound 372]	“+++” (>50 = +++)
138 (NLLDIDAPVTV; listed as Homo sapiens) [compound 138]	“+++” (>50 = +++)
254 (QLIPKLIFL; listed as Homo sapiens) [compound 254]	“+++” (>50 = +++)

Now consider a different substance.
Field request: Peptide Exchange (MHC class I binding score, peptide exchange yield) | item: 45 (FLPELPADLEA; listed as Homo sapiens) [compound 45]
“+++” (>50 = +++)

---

Target: HLA-A*02:01 (Homo sapiens, UniProt P04439, D140Y/D185E/D98H/E176V/E277Q/G131W/G231S/I119V/I121R/I166T/I218V/L300P/L318F/N151K/N90K/P208A/P217A/Q86G/Q94H/R138H/R169H/T345S)
Experiment: MHC binding assay (UV-ligand exchange, β2m ELISA, peptide exchange yield)
Settings: binding to HLA-A*02:01
Property: Peptide Exchange (MHC class I binding score, peptide exchange yield)

Substance	Test value
312 (LLYNSTDPTL; listed as Homo sapiens) [compound 312]	“+++” (>50 = +++)
233 (GIIDINVRL; listed as Homo sapiens) [compound 233]	“++” (>20% = ++)
313 (LMADLEGLHL; listed as Homo sapiens) [compound 313]	“+++” (>50 = +++)
61 (FVYFIVREV; listed as Homo sapiens) [compound 61]	“+++” (>50 = +++)
106 (FMASHLDYL; listed as Homo sapiens) [compound 106]	“+++” (>50 = +++)

Field request: Peptide Exchange (MHC class I binding score, peptide exchange yield) | item: 321 (RLLEFELAQL; listed as Homo sapiens) [compound 321]
“+++” (>50 = +++)

Field request: Peptide Exchange (MHC class I binding score, peptide exchange yield) | item: 63 (SLAHVAGCEL; listed as Homo sapiens) [compound 63]
“+++” (>50 = +++)

Field request: Peptide Exchange (MHC class I binding score, peptide exchange yield) | item: 141 (QILSEIVEA; listed as Homo sapiens) [compound 141]
“++” (>20% = ++)

Field request: Peptide Exchange (MHC class I binding score, peptide exchange yield) | item: 221 (ALVSTIIMV; listed as Homo sapiens) [compound 221]
“+” (>10% = +)

Field request: Peptide Exchange (MHC class I binding score, peptide exchange yield) | item: 75 (GLSIFAQDLRL; listed as Homo sapiens) [compound 75]
“++” (>20% = ++)
